// normalized growth lookup, one value per entry
- test.protocol: chemical genetic growth profiling, strain panel (AID 1159580);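 also: tested at 20 µM; growth read once vehicle control cultures reached saturation at 30 °C; 1 = growth at the plate median or of vehicle wells; lower values mean less growth of the strain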
- conditions: S. cerevisiae deletion strains, growth OD, locus YGL248W, strain PDE1, active compounds read low
The whole screen tested about 5,500 compounds, of which about 2,000 (36%) were called active. Inconclusive results (about 18%) are left out. The list shows a part of the results.

# compound, normalized growth
data = [
    ("O=C(c1ccccc1)c1ccc2n1CCC2C(=O)O (stereo not given)", "1.01 (inactive)"),
    ("N[C@@H](C(=O)N[C@@H]1C(=O)N2C(C(=O)O)=C(Cl)CS[C@H]12)c1ccccc1", "1.02 (inactive)"),
    ("CNC(=O)Oc1cccc2c1OC(C)(C)C2", "1.01 (inactive)"),
    ("C=C[C@H]1CN2CC[C@H]1C[C@H]2[C@H](O)c1ccnc2ccccc12", "1.01 (inactive)"),
    ("Cn1c(=O)c2c(ncn2CCCl)n(C)c1=O", "1 (inactive)"),
    ("CC(C)N1C(=O)c2ccccc2NS1(=O)=O", "1.01 (inactive)"),
    ("CC1=C(C(=O)O)N2C(=O)[C@@H](NC(=O)[C@@H](N)c3ccc(O)cc3)[C@H]2SC1", "1.01 (inactive)"),
    ("C[C@]12CC[C@@H](O)C[C@H]1CCc1ccccc12", "1 (inactive)"),
    ("CC(C)[C@@H]1CC[C@@H](C)CC1=O", "1.02 (inactive)"),
    ("COc1cc([C@@H]2c3cc4c(cc3[C@H](O)[C@H]3COC(=O)[C@H]23)OCO4)cc(OC)c1OC", "1.01 (inactive)"),
    ("Cn1c(=O)c2c(ncn2C)n(C)c1=O", "1 (inactive)"),
    ("CNC(=O)N(C)c1nnc(C(C)(C)C)s1", "1.01 (inactive)"),
    ("CCC[C@@H]1C[C@@H](C(=O)N[C@H]([C@H]2O[C@H](SC)[C@H](O)[C@@H](O)[C@H]2O)[C@H](C)O)N(C)C1", "0.986 (inactive)"),
    ("CN1C(=O)CC[C@H]1c1cccnc1", "1.02 (inactive)"),
    ("NS(=O)(=O)c1cc2c(cc1Cl)NCNS2(=O)=O", "1 (inactive)"),
]

###

- test.protocol: chemical genetic growth profiling, strain panel (AID 1159580);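 also: tested at 20 µM; growth read once vehicle control cultures reached saturation at 30 °C; 1 = growth at the plate median or of vehicle wells; lower values mean less growth of the strain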
- conditions: S. cerevisiae deletion strains, growth OD, locus YHR200W, strain rpn10, active compounds read low
The campaign covered roughly 5,500 compounds. About 2,000 (36%) were called active. Inconclusive results (about 18%) are left out. The list shows a part of the results.
quantity.measured: normalized growth

# compound, quantity.measured, value.reported
records = [
    ("CON", "normalized growth", "0.969 (inactive)"),
    ("CCCc1ncc(C[n+]2ccccc2C)c(N)n1", "normalized growth", "0.995 (inactive)"),
    ("O[C@H]1[C@H](O)[C@@H](O)C2OC[C@H]1O2", "normalized growth", "0.992 (inactive)"),
    ("COP(=O)(NC(C)=O)SC (stereo not given)", "normalized growth", "1 (inactive)"),
    ("CC(C)OC(=O)Nc1cccc(Cl)c1", "normalized growth", "0.985 (inactive)"),
    ("Cn1c(=O)c2c(ncn2CCO)n(C)c1=O", "normalized growth", "0.994 (inactive)"),
    ("CC(C)N=C(N)N=C(N)Nc1ccc(Cl)cc1", "normalized growth", "1.02 (inactive)"),
    ("CC(C)[C@@H]1CC[C@@H](C)C[C@H]1OC(=O)c1ccccc1", "normalized growth", "1.02 (inactive)"),
    ("COC1=CC23CCCN2CCc2cc4c(cc2C3C1O)OCO4 (stereo not given)", "normalized growth", "1.01 (inactive)"),
    ("C/C(=C\\CO)CC[C@H](C)CCC[C@H](C)CCCC(C)C", "normalized growth", "1.13 [resistant] (active)"),
    ("ClC1C(Cl)C(Cl)C(Cl)C(Cl)C1Cl (stereo not given)", "normalized growth", "0.922 (inactive)"),
    ("COc1ccc(-c2c(OC)c3c(OC)c4c(cc3oc2=O)OC(C)(C)C=C4)cc1", "normalized growth", "1.04 (inactive)"),
    ("Cn1c(=O)c2c(ncn2C)n(C)c1=O", "normalized growth", "1.02 (inactive)"),
    ("O=C(O)c1cc(=O)c2ccccc2[nH]1", "normalized growth", "0.987 (inactive)"),
    ("O=C1NS(=O)(=O)c2ccccc21", "normalized growth", "0.991 (inactive)"),
]
